tgt: LNX1_2, Q8TBB1
Sequence (Q8TBB1 371-470): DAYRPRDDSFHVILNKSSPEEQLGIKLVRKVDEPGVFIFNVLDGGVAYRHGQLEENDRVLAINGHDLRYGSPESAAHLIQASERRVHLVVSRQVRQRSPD
test_method_notes: holdup assay
Parameters: key: below the threshold = too weak to quantify, mostly under pKd 3.1 to 4
condition_summary: plain residues with an end cap or a label only (N-terminal biotin on a linker: ado-ado)
result_type: pKd

// worked examples, pKd included
binder: AHGSTRDQSI [KCNB1, Q14721]
pKd: below the threshold
--
binder: THREVKFTSL [CD46, P15529]
pKd: below the threshold
--
binder: TNSKQGETTV [FZD1, Q9UP38]
pKd: 3.68
--
binder: PDSYHRRDFW [U2AF2, P26368]
pKd: below the threshold

Prompt: Fill in the blank: the reported pKd of SSSVNVSSNL [CXCR1, P25024] is ____.
Completion: below the threshold

Prompt: Fill in the blank: the reported pKd of VKQYADVEGF [HNRNPK, P61978;P61978-2] is ____.
Completion: below the threshold

Prompt: Fill in the blank: the reported pKd of GNDPDRGTSI [GRID2, O43424] is ____.
Completion: below the threshold

Prompt: Fill in the blank: the reported pKd of IQISELETNV [SLC1A7, O00341] is ____.
Completion: below the threshold

Prompt: Fill in the blank: the reported pKd of NNMAFETTHF [SLC5A12, Q1EHB4] is ____.
Completion: below the threshold

Prompt: Fill in the blank: the reported pKd of KAEEKPPSKV [SCN4B, Q8IWT1] is ____.
Completion: below the threshold

Prompt: Fill in the blank: the reported pKd of VYEVPVETKF [SLC26A3, P40879] is ____.
Completion: below the threshold

Prompt: Fill in the blank: the reported pKd of KEKASTETEC [TRPM1, Q7Z4N2] is ____.
Completion: below the threshold

Prompt: Fill in the blank: the reported pKd of FHSIKQSTAV [CRHR1, P34998] is ____.
Completion: below the threshold

Prompt: Fill in the blank: the reported pKd of PSVYSRSQYV [CLDN8, P56748] is ____.
Completion: 3.7

Prompt: Fill in the blank: the reported pKd of SRPHTNETSL [MCC, P23508] is ____.
Completion: below the threshold

Prompt: Fill in the blank: the reported pKd of GVHSNDHSVV [LPAR1, Q92633] is ____.
Completion: below the threshold

Prompt: Fill in the blank: the reported pKd of VISSDDLTEL [CAPN6, Q9Y6Q1] is ____.
Completion: below the threshold

Prompt: Fill in the blank: the reported pKd of SQDPKKPSRV [CBY2, Q8NA61] is ____.
Completion: below the threshold

Prompt: Fill in the blank: the reported pKd of HYPASPDSWV [CTNND2, Q9UQB3] is ____.
Completion: 3.8

Prompt: Fill in the blank: the reported pKd of NTALVESEDL [PALLS, Q8WX93;Q8WX93-1] is ____.
Completion: below the threshold
